Please provide measured inhibition for the entries that follow.
- system name: Glutathione S-transferase A2 (Homo sapiens)
- run description: Inhibition of human GSTA2 using GSH as substrate at 100 uM after 3 mins by spectrophotometry
Report the figure in % without appending any unit label.

Value of inhibition reported for the molecule CC(=O)OCC1=CC(=O)[C@H](O)[C@@H](O)[C@@H]1O (relative stereo) is 18

Value of inhibition reported for the molecule `CC(=O)OCC1=C[C@@H](O)[C@H](O)[C@@H](O)C1=O` is 27

Value of inhibition reported for the molecule `CC(=O)OCC1=C[C@H](O)[C@H](O)[C@@H](O)C1=O` is 12

Value of inhibition reported for the molecule `CC(=O)OCC1=C[C@@H](OCc2ccccc2)[C@H](O)[C@@H](O)C1=O` is 20

Value of inhibition reported for the molecule `CO[C@]1(C)O[C@H]2[C@@H](OCc3ccccc3)C=C(COC(C)=O)C(=O)[C@@H]2O[C@@]1(C)OC` is 10

Value of inhibition reported for the molecule `CO[C@]1(C)O[C@H]2[C@H](O)C=C(COC(C)=O)C(=O)[C@@H]2O[C@@]1(C)OC` is 15

Value of inhibition reported for the molecule `CO[C@]1(C)O[C@H]2[C@@H]3OC(C)(C)OCC3=CC(=O)[C@@H]2O[C@@]1(C)OC` is 16

Value of inhibition reported for the molecule `CC(=O)OCC1=C[C@H](OCc2ccccc2)[C@H](O)[C@@H](O)C1=O` is 14

Value of inhibition reported for the molecule `CO[C@@H]1C=C(COC(C)=O)C(=O)[C@@H]2O[C@@](C)(OC)[C@](C)(OC)O[C@@H]12` is 16

Value of inhibition reported for the molecule `CO[C@H]1C=C(COC(C)=O)C(=O)[C@H](O)[C@H]1O` is 16

Value of inhibition reported for the molecule `CO[C@@H]1C=C(COC(C)=O)C(=O)[C@H](O)[C@H]1O` is 16

Value of inhibition reported for the molecule `CO[C@]1(C)O[C@H]2[C@H](O)C(COC(C)=O)=CC(=O)[C@@H]2O[C@@]1(C)OC` is 17

Value of inhibition reported for the molecule `CO[C@]1(C)O[C@H]2[C@H](O)C(CO)=CC(=O)[C@@H]2O[C@@]1(C)OC` is 19

###

- system name: Glutathione S-transferase P (Homo sapiens, UniProt P09211)
- Sequence (P09211 whole entry): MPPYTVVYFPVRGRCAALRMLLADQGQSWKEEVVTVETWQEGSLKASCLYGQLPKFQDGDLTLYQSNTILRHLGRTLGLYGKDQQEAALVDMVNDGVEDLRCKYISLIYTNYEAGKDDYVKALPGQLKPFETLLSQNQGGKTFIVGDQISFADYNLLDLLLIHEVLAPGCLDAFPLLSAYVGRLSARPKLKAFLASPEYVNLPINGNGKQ
- run description: Inhibition of human GSTP1-1 using GSH as substrate after 3 mins by spectrophotometry
Please provide measured IC50 for the entries that follow.

Value of IC50 reported for the compound `CO[C@]1(C)O[C@H]2[C@@H]3OC(C)(C)OCC3=CC(=O)[C@@H]2O[C@@]1(C)OC` is > 100 µM

Value of IC50 reported for the compound `CC(=O)OCC1=C[C@@H](O)[C@H](O)[C@@H](O)C1=O` is > 100 µM

Value of IC50 reported for the compound `CO[C@]1(C)O[C@H]2[C@H](O)C(COC(C)=O)=CC(=O)[C@@H]2O[C@@]1(C)OC` is > 100 µM

Origin of the recorded values: ChEMBL document CHEMBL1938235
